ASSAY TARGET: human ether-à-go-go-related gene (hERG) potassium channel (human)
TEST PROTOCOL: primary screen, population patch clamp on CHO cells stably expressing hERG; higher = less effect of the substance
The campaign covered roughly 310,000 compounds. About 14,000 (4.5%) showed an effect of 50% or more. Effects have a minus sign here. Shown is part of a subset that was picked to be rich in strong results.
QUANTITY: hERG current change (%, negative = inhibition) at 10uM (%)
Give your result in % as a bare value.

Answered examples (10):
# MOLECULE, TEST VALUE
records = [
    ("COC(=O)c1c(C(=O)OC)c(-c2ccc(F)cc2)n2c1CS(=O)C2 (stereo not shown)", 26.7),
    ("CC(C)c1nnc(NC(=O)c2cc3ccccc3o2)s1", 11.1),
    ("CCCC[n+]1c2ccccc2cc2ccccc21.[I-]", -32.9),
    ("COc1cc(N2Cc3ccccc3C2)ccc1C=O", -3.61),
    ("CCCn1ncc(CN2CCCC(C(=O)c3cccc(OC)c3)C2)c1C (stereo not shown)", -67.8),
    ("O=C(NC1CC1)C1CCN(C2CCN(Cc3ccccc3C(F)(F)F)CC2)CC1", -53.1),
    ("COc1ccc(S(=O)(=O)N2CCOCC2)cc1C(=O)NCC(c1ccco1)N1CCCC1 (stereo not shown)", 3),
    ("O/N=C/c1cccc[n+]1CCCCCC[n+]1ccccc1/C=N/O.[Br-]", 20.1),
    ("COC(C[C@H]1O[C@@H]1C(=O)COCc1ccccc1)OC", 4.27),
    ("COc1ccc(C2C(C(=O)OCC(=O)Nc3ccc(C)cc3)CCC(=O)N2c2ccc(OC)cc2)cc1 (stereo not shown)", -62.4),
]

Req: # get_value(readout='hERG current change (%, negative = inhibition) at 10uM', item= O=C(NC1CC1)C1CCN(C2CCN(C(=O)Cc3ccc(F)cc3)CC2)CC1 )
Resp: -2.99

Req: For the molecule COC(=O)c1c(C(=O)OC)c(-c2ccc(OC)cc2)n2c1CS(=O)C2 (stereo not shown) , what hERG current change (%, negative = inhibition) at 10uM is on record?
Resp: 10.1

Req: // returns reported hERG current change (%, negative = inhibition) at 10uM for input Cc1ccc2c(C)c(C(=O)N3CCC(N4CCC(C(=O)NC5CC5)CC4)CC3)oc2c1
Resp: -59.1

---

// reported hERG current change (%, negative = inhibition) at 10uM for each item listed
ASSAY TARGET: human ether-à-go-go-related gene (hERG) potassium channel (human, UniProt Q12809)
Sequence (Q12809 whole entry, looked up): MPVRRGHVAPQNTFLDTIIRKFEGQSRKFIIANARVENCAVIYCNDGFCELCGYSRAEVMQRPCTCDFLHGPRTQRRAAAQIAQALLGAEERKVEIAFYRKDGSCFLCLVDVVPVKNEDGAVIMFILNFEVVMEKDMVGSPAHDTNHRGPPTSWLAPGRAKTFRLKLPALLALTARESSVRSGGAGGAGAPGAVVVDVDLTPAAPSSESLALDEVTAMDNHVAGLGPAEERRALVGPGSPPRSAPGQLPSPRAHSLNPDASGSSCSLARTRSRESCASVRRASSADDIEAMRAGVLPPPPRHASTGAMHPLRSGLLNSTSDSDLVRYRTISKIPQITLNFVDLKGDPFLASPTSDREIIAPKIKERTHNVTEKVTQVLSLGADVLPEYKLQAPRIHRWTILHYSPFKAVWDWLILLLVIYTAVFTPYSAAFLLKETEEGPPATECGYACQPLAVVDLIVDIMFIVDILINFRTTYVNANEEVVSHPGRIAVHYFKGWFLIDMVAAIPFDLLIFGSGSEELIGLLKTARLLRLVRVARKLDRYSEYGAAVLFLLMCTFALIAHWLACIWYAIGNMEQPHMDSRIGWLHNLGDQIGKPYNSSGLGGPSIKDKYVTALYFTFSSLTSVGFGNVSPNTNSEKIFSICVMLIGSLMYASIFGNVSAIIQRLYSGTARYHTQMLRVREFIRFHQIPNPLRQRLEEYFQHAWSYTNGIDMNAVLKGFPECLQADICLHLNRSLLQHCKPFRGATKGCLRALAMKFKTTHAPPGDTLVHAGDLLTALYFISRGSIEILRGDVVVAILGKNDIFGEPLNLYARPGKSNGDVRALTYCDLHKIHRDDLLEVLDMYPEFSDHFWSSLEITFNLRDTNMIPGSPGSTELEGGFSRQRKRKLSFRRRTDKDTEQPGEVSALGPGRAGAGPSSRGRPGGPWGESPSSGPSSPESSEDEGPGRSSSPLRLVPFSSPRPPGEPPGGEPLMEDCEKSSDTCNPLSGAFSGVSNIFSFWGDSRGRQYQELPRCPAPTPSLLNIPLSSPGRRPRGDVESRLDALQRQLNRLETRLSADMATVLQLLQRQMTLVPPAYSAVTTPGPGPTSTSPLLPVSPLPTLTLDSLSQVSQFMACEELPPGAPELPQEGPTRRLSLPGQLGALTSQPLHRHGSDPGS
TEST PROTOCOL: primary screen, population patch clamp on CHO cells stably expressing hERG; higher = less effect of the substance
About 14,000 (4.5%) of roughly 310,000 compounds showed an effect of 50% or more. Effects have a minus sign here. This is one part of a sample in which strong results are shown more often than they occur.

# COMPOUND, TEST VALUE
rows = [
    ("CCN(CC)S(=O)(=O)c1ccc(Oc2cccc(C(C)=O)c2)nc1", "-65.5%"),
]

Req: Form field: reported hERG current change (%, negative = inhibition) at 10uM of COc1ccccc1OCC(=O)OCC(=O)Nc1ncc(Cl)cc1Cl
Resp: 12.8%

Req: Record request: hERG current change (%, negative = inhibition) at 10uM value, item CCN(c1ccccc1)S(=O)(=O)c1ccc(Oc2ccc(C(C)=O)cc2OC)nc1
Resp: -26.2%

Req: // query hERG current change (%, negative = inhibition) at 10uM value for entry Cn1c(CN2CCN(C(=O)c3ccccc3)CC2)nc2cc([N+](=O)[O-])ccc21
Resp: -67.3%

Req: Look up hERG current change (%, negative = inhibition) at 10uM: CC(=O)N1CCN(Cc2nc3cc([N+](=O)[O-])ccc3n2C)CC1
Resp: -4.94%

---

ASSAY TARGET: human ether-à-go-go-related gene (hERG) potassium channel (human, UniProt Q12809)
TEST PROTOCOL: primary screen, population patch clamp on CHO cells stably expressing hERG; higher = less effect of the substance
Among all 310,000 compounds or so, about 14,000 (4.5%) showed an effect of 50% or more. Effects have a minus sign here. The sample holds strong results, similar compounds and a random draw of the others, so the mix is not that of the screen.
QUANTITY: hERG current change (%, negative = inhibition) at 10uM (%)
Output spec: scalar in %, unitless text.

Previously resolved entries follow.
# COMPOUND, ASSAY TARGET, TEST VALUE
measured = [
    ("COc1ccc(S(=O)(=O)NCc2cc(=O)n(C)c(=O)n2C)cc1C", "human ether-à-go-go-related gene (hERG) potassium channel (human, UniProt Q12809)", 22.6),
    ("Cc1occc1C(=O)Nc1ccc(Br)cc1F", "human ether-à-go-go-related gene (hERG) potassium channel (human, UniProt Q12809)", 2.03),
]

Req: Please state recorded hERG current change (%, negative = inhibition) at 10uM (tested on human ether-à-go-go-related gene (hERG) potassium channel (human, UniProt Q12809)) of c1ccc(Cn2nnc3cnccc32)cc1
Resp: 2.3

Req: Please tell me: hERG current change (%, negative = inhibition) at 10uM of COCCN(C/C=C/c1ccccc1)C/C=C/c1ccccc1 , system human ether-à-go-go-related gene (hERG) potassium channel (human, UniProt Q12809)?
Resp: -69.4

Req: I'm curious: which hERG current change (%, negative = inhibition) at 10uM was measured for CCc1ccc(Nc2nc(C)cc(C)n2)cc1.Cl tested on human ether-à-go-go-related gene (hERG) potassium channel (human, UniProt Q12809)?;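 also: peak tail current of the secondary pulse compared with the same well before compound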
Resp: -1.21

Req: Please state recorded hERG current change (%, negative = inhibition) at 10uM (tested on human ether-à-go-go-related gene (hERG) potassium channel (human, UniProt Q12809)) of COc1ccc(NC(=O)/C(C#N)=C\c2ccc(OCc3ccc(C(=O)O)cc3)c(OC)c2)cc1;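 also: peak tail current of the secondary pulse compared with the same well before compound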
Resp: 3.69

Req: Hello, I am looking for reported hERG current change (%, negative = inhibition) at 10uM with human ether-à-go-go-related gene (hERG) potassium channel (human, UniProt Q12809) for c1ccc(-c2nnc(OCc3cccnc3)c3ccccc23)cc1 . Could you help?
Resp: -83.2

---

ASSAY TARGET: human ether-à-go-go-related gene (hERG) potassium channel (human);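 also: peak tail current of the secondary pulse compared with the same well before compound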
TEST PROTOCOL: primary screen, population patch clamp on CHO cells stably expressing hERG; higher = less effect of the substance
About 14,000 (4.5%) of roughly 310,000 compounds showed an effect of 50% or more. Effects have a minus sign here. The sample as a whole holds a higher share of strong results than the screen did.
hERG current change (%, negative = inhibition) at 10uM for assorted compounds
# number then unit; no other words

# COMPOUND, TEST VALUE
data = [
    ("COc1ccc(C)cc1S(=O)(=O)Nc1cc(Cl)ccc1Cl", "7.53%"),
    ("Cc1cc(C)cc(OCC(O)CN2CCC(CN3C(=O)c4cccc5cccc(c45)C3=O)CC2)c1.Cl (stereo not drawn)", "-70%"),
    ("CN1CCN(C(=O)c2ccccc2NC(=O)c2ccc(C(C)(C)C)cc2)CC1", "-9.21%"),
    ("Cc1c(N=Cc2nc3ccccc3[nH]2)c(=O)n(-c2ccccc2)n1C", "5.52%"),
    ("c1cnc(N2CCSCC2)nc1", "0.773%"),
    ("CCOc1ccc(-n2c(=O)c3ccccc3c3ccccc3c2=O)cc1", "17.8%"),
    ("CCOC(=O)N1CCN(CC(O)COc2c(C)cccc2C)CC1.Cl (stereo not drawn)", "-15.7%"),
    ("Cc1ccc(C)c(OCC(O)CN2CCC(CN3C(=O)c4cccc5cccc(c45)C3=O)CC2)c1.Cl (stereo not drawn)", "-68.2%"),
]

Next compound, please.
Req: Could you share which hERG current change (%, negative = inhibition) at 10uM value was measured for Cc1ccc(S(=O)(=O)Oc2ccc(/C=N/N=C3/NC(=O)C(CC(=O)O)S3)cc2)cc1[N+](=O)[O-] (stereo not drawn) ?
Resp: 24%

---

ASSAY TARGET: human ether-à-go-go-related gene (hERG) potassium channel (human);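 also: peak tail current of the secondary pulse compared with the same well before compound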
TEST PROTOCOL: primary screen, population patch clamp on CHO cells stably expressing hERG; higher = less effect of the substance
The campaign covered roughly 310,000 compounds. About 14,000 (4.5%) showed an effect of 50% or more. Effects have a minus sign here. The entries come from a sample that favours strong results as a whole.
QUANTITY: hERG current change (%, negative = inhibition) at 10uM (%)
Provide the reading as a plain figure in %.

Known results for compounds:
# COMPOUND, MEASUREMENT UNITS, TEST VALUE
rows = [
    ("NC(=O)c1ccc(NC(=O)CSc2nnc(-c3ccc4c(c3)OCO4)o2)cc1", "%", 2.05),
    ("O=C(CCc1nc(-c2ccccc2F)no1)NCCN1CCOCC1", "%", 6.22),
    ("Cl.Fc1ccc(C(OCCN2CCN(CCCc3ccccc3)CC2)c2ccc(F)cc2)cc1", "%", -77.4),
    ("CC1(C)CC(=O)c2cc(OCC(=O)NCCCN3CCN(c4ccccc4F)CC3)ccc2O1", "%", -47.4),
    ("O=[N+]([O-])c1ccc2c(c1)nc1n2CCSC1", "%", -19.2),
    ("COc1cc(O)c(C(CC(=O)N2CCCC(C)C2)c2cc(OC)c(OC)c(OC)c2)c(OC)c1 (stereo not shown)", "%", 2.69),
]

Req: Entry COc1ccc(-c2ccc(Nc3ccc(S(=O)(=O)N4CCCC4)cc3)nn2)cc1OC : reported hERG current change (%, negative = inhibition) at 10uM = ?
Resp: 6.55

Req: Quick one: hERG current change (%, negative = inhibition) at 10uM for CC1(C)CC(=O)c2cc(OCC(=O)NCCCN3CCN(c4ccc(F)cc4)CC3)ccc2O1 ?
Resp: -72.9

Req: Look at this compound and give its reported hERG current change (%, negative = inhibition) at 10uM. COc1ccc(N2CCN(C(=O)CCc3nc(-c4ccc(C)cc4)no3)CC2)cc1
Resp: -14.1

Req: Requested read-out: hERG current change (%, negative = inhibition) at 10uM. Entry: COc1ccc(-c2noc(CCC(=O)NCCCN3CCC(C)CC3)n2)cc1
Resp: -5.81

Req: Value lookup for hERG current change (%, negative = inhibition) at 10uM; key = O=C(CCc1nc(-c2ccccc2F)no1)NCCN1CCN(Cc2ccccc2)CC1
Resp: -43.2

These entries and their values trace back to paper PMC4336329.
